FYI, the data here is from patent US20250171534A1.

- TARGET_OF_ASSAY: T1, human LILRB1 expressed on cells (human, UniProt Q8NHL6 24-650)
- T1 construct: In 293T cells it was expressed from pCMV3-LILRB1-GFP; also called CHO-LILRB1; Jurkat-LILRB1
- PROCEDURE_DETAILS: flow cytometry, CHO-LILRB1 cells; blocked ligand: APC HLA-G trimer tetramer
Assign labels as follows, please: YES for IC50 below 0.8 µg/mL; NO for IC50 equal to or exceeding 0.8 µg/mL.

binder="D2M002-026 (antibody, V domains shown, Hit; also called clone #26) VH: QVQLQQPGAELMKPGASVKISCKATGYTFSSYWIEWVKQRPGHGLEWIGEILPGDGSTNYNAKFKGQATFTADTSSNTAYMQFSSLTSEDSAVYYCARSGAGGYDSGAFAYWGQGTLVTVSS VL: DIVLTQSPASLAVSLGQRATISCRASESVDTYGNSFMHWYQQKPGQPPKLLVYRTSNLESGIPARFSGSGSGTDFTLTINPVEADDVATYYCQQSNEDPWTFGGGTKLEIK" class_label=YES
binder="#16 (antibody, human IgG1, V domains shown, also called D2M002-016) VH: EVQLQQSGAELMKPGASVKISCKATGNTFSSYWIEWVKQRPGHDLEWIGEILPGSGSTNYNEKFKGKATFTADTSSNTAYMQLNSLTSEDSAVYYCARSGAGGYDSGAFAYWGQGTLVTVSA VL: DIEMTQSPASLAVSLGQRATISCRASESIDSYGNSFMHWYQQKPGQPPKLLIYRTSNLESGIPARFSGSGSRTDFTLTINPVEADDVATYYCQQSNEDPWTFGGGTKLEIK" class_label=NO
binder="#11 (antibody, human IgG1, V domains shown, also called D2M002-011) VH: EVQLQQSGAELMKPGASVKISCKATGYTFSNYWIEWVKQRPGHGLEWIGEILPGSGSTDYNEKFEGKATFTADTSSNTAYMQLSSLTSEDSAVYYCARSGAGGYDSGAFAYWGQGTLVTVSA VL: DIQMTQSPASLAVSLGQRATISCRASESVDTYGNSFMHWYQQKPGQPPKLLIYRTSNLESGIPARFSGSGSRTDFTLTINPVEADDVATYYCQQSNEDPWTFGGGTKLEIK" class_label=YES
binder="D2M002-002 (antibody, V domains shown, Hit from immunised mice; also called clone #2; anti-LILRB1/2 clone #2) VH: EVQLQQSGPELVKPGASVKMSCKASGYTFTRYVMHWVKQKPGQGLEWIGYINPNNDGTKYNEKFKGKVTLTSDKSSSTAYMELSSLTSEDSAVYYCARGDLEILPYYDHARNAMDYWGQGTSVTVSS VL: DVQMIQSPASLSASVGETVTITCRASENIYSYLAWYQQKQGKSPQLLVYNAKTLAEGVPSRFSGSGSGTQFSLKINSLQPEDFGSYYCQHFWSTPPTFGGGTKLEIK" class_label=YES
binder="#22 (antibody, human IgG1, V domains shown, also called D2M002-022) VH: QVQLQQSGAELMKPGASVKISCKATGYTLSSYWIEWVKQRPGHGLEWIGEILPGSGSTNYNEKFKGKATFTADTSSNTAYMQLSSLTSEDSAVYYCARSGAGGYDSGAFAYWGQGTLVTVSA VL: DIVLTQSPASLAVSLGQRATISCRASESVDTYGNSFMHWYQQKPGQPPKLLIYRTSNLESGIPARFSGSGSRTDFTLTINPVEADDVATYYCQQSNEDPWTFGGGTKLEIK" class_label=YES
